Just for reference, the nanobody polyreactivity screen of Harvey et al. (2022) is where these values come from.

# ASSAY_REMARKS: yeast display, Sf9 membrane polyspecificity reagent, FACS + sequencing; frameworks hold sequencing errors
READOUT_LABEL: polyreactivity (PSR sort gate)

Below, each entry is followed by its recorded polyreactivity (PSR sort gate) result.
QVQLEESGGGLVQAGGRLRLSCAASGIIFEYYAMGGYRQAPGTERELVAAIFSGGSTYYADSVKGRFTISGDNAKNNVYLQMNSLKPEDTAVYYCAADYFAWGQGTQVTVSS :: high polyreactivity
QVQHVESGGGLVQAGGSLRLSCAASGRIFHYYAMGWYRQAPGKERELVAAINKSGGRTYYADSVKGRFTISRDNAKNTVYLQMNSLKPEDTAVYYCNKRSVPGTYYPTPVRYKYDYWGQGTQVTVSS :: high polyreactivity
QVQLVDSGGGLVQAGGSLRLICAASGSTFARNTMGWYRQAPGKETELVAVISRGDSTYYADSVKGRFTISRDNAKNSVYLQMNSLKPEDTAVNYCIAYLRYAYPSKMDYWGQGTQVTVSS :: low polyreactivity
QVQLVESAGALVQEGGSLRLICAASGFTFLKNAMGWYRQAPGKERELVDGISRSGGSTYYADSVKRRFTISRDKAKNPDYLQMNSQKPEDPAVYYCAAGTVQSYTWLPTRGDYWGQGSQVTVSS :: high polyreactivity

Query sequence follows.
# input Need polyreactivity (PSR sort gate) of QVQLVESGGGLVQAGGSLRLICAASGSTFQDYGMGWYRQAPGKERELVAAITTGDITNYADSVKGRFTISRDNAKKTVYLQMNSLKAEDTAVYYCNAEPKFYPDAGDDYWGQGTQVTVSS , thanks.
# output low polyreactivity

* * *

# ASSAY_REMARKS: yeast display, Sf9 membrane polyspecificity reagent, FACS + sequencing; frameworks hold sequencing errors
READOUT_LABEL: polyreactivity (PSR sort gate)

QVQLVESGGGLVQAGGSLRLSCAASGFIFGRYAMGWYRQAPGKERELVAAISRSGGSTHYADSVKGRFTISRDNAKNTVYLQMISLKPEDTAVYYCAAVWPFDRSRMDYWGQGTQVTVSS :: high polyreactivity
QVQLVESGGGLVQAGGSLRLSCAASGRTFLSYMGWYRQAPGKERELVAISRSGTSTYYADSVKGRFTISRDNAKNTVYLQMNSLKPEDTAVYYCAAETNTWYLFDYWGQGTQVTVSS :: high polyreactivity

* * *

# ASSAY_REMARKS: yeast display, Sf9 membrane polyspecificity reagent, FACS + sequencing; frameworks hold sequencing errors
READOUT_LABEL: polyreactivity (PSR sort gate)

QVQLVESGGGLVQAGGSLRLSCAASGFTFWLYAMGSYRQAPGKEREFVAAISTSGGYTYADSVKGRFTISRDNAKNTVYLQMNSLKPEDTAVYYCAVDGLPPKDALHLYYYWGQGTQVTVSS :: low polyreactivity
QVQLVESGGGLVQAGGSLRLSCAASGLTFWLYAMGWYRPAPGKERELVAAITRSGGSTSYADSVKGRFTISRDNAKNTVYLQMNSLKPEDTAVYYCNADSPGYTAVRLVEFDYWGQGTQVTVSS :: low polyreactivity
QVQLVESGGGLVQAGGSLRLSCAASGITFRYYAMGWYRQAPGKERELVATITRGGSTYYADSVKGRFTISRDNAKNTVYLQMNSLKPEDTADYYCAAAGQRYTYWVDYWGQGTQVTVSS :: high polyreactivity
QVQLVQSGGGLVQAGGILRLSCAASVSTLFGYAMGWYRQAPGKERELVAAINTGGSTNDADSVKGRFTISRDNAKNTVYVQMNSLKPEDTAVYYCAADYEWDAFAYDYWGHGTQVTVSS :: low polyreactivity
QVQLVETGGGLVHAGGSLRLSCAASGSIFQGHAMGWYRQAPGKERELVAAISRNGGRTYYADSVKGRFTISRDNAKNTVYLQMNSLKPEDTAVYYCAAYHNVEYDYWGQGTQVTVSS :: high polyreactivity
QVQLVESGGGLVQAGGSLRLSCAASGRTMNSNAKGSYRQAPGKEREFVAAITSGGSTNYADSVKGRFSLSRDNAKNTVYLQMTSLKPEDTAVYYCAVRGYWTIRCRRYYYWGHGTQVTVSS :: high polyreactivity

# input I am curious: what polyreactivity (PSR sort gate) value has been reported for QVQLVESGGGLVQAGGSLRLSCAASGSIFSVYAMGWYRQAPGKERELVAAIDFSGGSTYYADSVKGRFTISRDNPKNTVYLQMNSLKPEDTAVYYCAAEYLPYPEYEYDYWGQGTQVTVSS ?
# output low polyreactivity

# input Looking for the measured polyreactivity (PSR sort gate) of QVQLVESGGGLVQAGGSLRLSCAASGRTFIYYAMGWYRQAPGKERELVAGITYSVGSTYYADSVKGRFTISRDNEKNTVYLQMNSLKPEDTAVYYCAYYYWGQGTQVTVSS , can you help?
# output low polyreactivity

# input What does the record list as polyreactivity (PSR sort gate) for QVQLVESGGGLVQAGGSLRLSCAASGSIFRVYAMGWYRQAPGKERELVAAISVSGGSTNYADSVKGRFTISRDNAKNTVYLQMNSLKPEDTAVYYCNRKQQVSSELDYWGQGTQVTVSS ?
# output low polyreactivity

# input # polyreactivity (PSR sort gate) lookup, item QVQLVESGGGLVQAGGSLRLSCAASGRTFKTYAMVWYRQAPGKERELVAAISRDGRTYYADSVKGRFTISRDNAKNTVYLQMNSLKPEDTAVYYCNKRSYRNGDYWGQGTQVTVSS
# output low polyreactivity

# input Find the recorded polyreactivity (PSR sort gate) belonging to QVQLVESGGGLVQAGGSLRLSCAASGRTFWKYARGWYRQAPGKERELVAAISSSGGNTYYADSVKGRFTISRDNAKNTVYLQMNSLKPEDTAVYYCAARLPRGAYYYWGQGTQVTVSS and report it.
# output high polyreactivity

* * *

# ASSAY_REMARKS: yeast display, Sf9 membrane polyspecificity reagent, FACS + sequencing; frameworks hold sequencing errors
READOUT_LABEL: polyreactivity (PSR sort gate)

QDQLVESGGRIVQAGGSLRLSCAASGRIFSVYARGWYRQAPGKERELVATISDGGATTYYADSVKGRFTISRDNAKNTVFFQMNSLKPEDTAVYYCAADKRGRPGLPDYDSWGQGTEVTVSS :: low polyreactivity
QVQLVESRGCLVQAGVSLRLSCAASGSTFQSYAMGCYRQAPGKERELVAAISTSETDRTYYADSVKGRFTISRDNAKNTVYLQMISLKPEDTAVYYCNADGYSHGDWYGYWGQGTQVTVSS :: low polyreactivity
QVQLVESGGGLVQAGGSLRLSCAASGFIFRLNAMGWYRQAPGKERELVAAISTYADSMKGRFTISRDNAKNTVYLQMNSLKPEDTAVYYCAKDYTDTYAYRTGFDYWGQGTQVTVSS :: low polyreactivity
QVQLVESPGGLVQAGGSLRLSCAASGRTFYRNAMGWYRQAPGKERELVAVISLNGGRTYYADSVKGRFTISRDNAKNTVYLQMNSLKPEDTAVYYCNKLTGPVFTRGFYYWGQGTQVTVSS :: high polyreactivity
QVQLVESGGGLVQAGGSLRLSCAASGRTFRVYAMGWYRQAPGKERELVAGIRSRGGSTYYADSVKGRFTISRDYAKNTVYLQMNSLKPEDTAVYYCAAGYYLPQAIYEYWGLGTQVTVSS :: high polyreactivity
QVQLVESGGGLVQAGGSLRLSCAASGYTIRNYAMGWYRQAPGTERELVAAIRGSGGSTYYADSVKGRFTISRDNAKNTVYLQMNSLKPEDTAVDYCNADQLVWQRYGVLYEYDYWGQGTQVTVSS :: high polyreactivity

# input GET /values?readout=polyreactivity (PSR sort gate)&item= QVQLVESVGGLVQAGGSLRLSCAASGLIFPWYAMGWYRQAPGKERELVAAIRWRGGGTYYADSVKGRFTISRDNAKNTVYLQMNSLKPEDTAVYYCAARRPAKGMGYWGQGTQVTVSS
# output high polyreactivity

# input // lookup polyreactivity (PSR sort gate) for QVQLVESGGGLVQAGGSLRLSCAASGFIFSHNAMGWYRQAPGKERELVAAIDYIDGSTYYADSVKGRFTISRDNAKYTVYLQMNSLIPEDTAVYDCAADGLFYWWHYGYWGQGSQVTVSS
# output low polyreactivity

# input Given QVQLVESGGGLVQAGGSLRLSCAASGSIFEVNAMGWYRQAPGKERELVAAISCSGGSTYYADSVKGRFTISRDNAKNTVYLQMNSLKPEDTAVYYCAARPAGYSGRKLYYWGQGTQVTVSS , state its recorded polyreactivity (PSR sort gate).
# output low polyreactivity

# input Which polyreactivity (PSR sort gate) reading was recorded for the sequence QVQLVESGGGLVQAGGSLRLSCAASGIISYRYGMGWYRQAPGKEGELVAAISWSGGSTYYADSVKGRFTISRDNAKNTVYLQMNSRKPEDTAVYYCAAYWRQAGVFKIYDYWGQGTQVTVSS ?
# output high polyreactivity

# input Need polyreactivity (PSR sort gate) of QVQLVHSGGGLVQAGGSLRLSCAASGITIWYYAMGWYRQAPGKERELVAAISWRGGSTYYADSVKGRFTISRDYAKNTVNLQMNSLKPEATAVYYCAAGYSLLYTYEYWGQGTQVTVSS , thanks.
# output high polyreactivity

# input Which polyreactivity (PSR sort gate) value belongs to QVQLVESGGGLVQAGGSIRLSCAASGFISYYYAMGWYRQAPGKERELVAAITKSGGSTYYADSVKGRFTISRDNAKNTVYLQMNSLKPEDTAVDYCAAVRSTRNSTSRLYGYWGQGTQVNVSS ?
# output low polyreactivity

# input Consider the sequence QVQLVESGGGLVQAGGSLRISCAASGRTFRKYGMGWYRQAPGKERELLAAITRSGDSTYYADSVKARFTISRDNAMNTVYLQMNSLKPEDTAVYYCNTDGPRTYDTWEYDYWGQGTQVTVSS and give its measured polyreactivity (PSR sort gate).
# output high polyreactivity
